Molecular target: Endothelial lipase (EL) (Homo sapiens (Human))
Sequence (Q9Y5X9 21-500): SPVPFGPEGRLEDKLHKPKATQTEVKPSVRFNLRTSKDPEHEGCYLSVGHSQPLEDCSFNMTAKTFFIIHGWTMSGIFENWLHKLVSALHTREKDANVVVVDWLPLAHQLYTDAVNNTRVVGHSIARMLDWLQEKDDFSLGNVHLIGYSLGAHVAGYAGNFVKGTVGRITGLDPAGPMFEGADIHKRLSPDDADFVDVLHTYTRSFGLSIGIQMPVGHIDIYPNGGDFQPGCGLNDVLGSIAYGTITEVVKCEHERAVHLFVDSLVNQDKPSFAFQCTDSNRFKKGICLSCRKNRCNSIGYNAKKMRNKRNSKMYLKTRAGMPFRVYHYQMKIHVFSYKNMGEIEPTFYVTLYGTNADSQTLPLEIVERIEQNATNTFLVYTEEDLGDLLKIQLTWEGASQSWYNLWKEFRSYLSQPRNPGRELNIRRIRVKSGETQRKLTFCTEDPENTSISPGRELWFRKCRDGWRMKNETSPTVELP
Experiment: Endothelial lipase (EL) enzymatic assay with fluorescent substrate A10070 in DMPG vesicles
Type: biochemical
Measured Parameter: IC50 (nM)

a: COCCS(=O)(=O)C(C(=O)NCC(=O)NCCOC(C)C)c1nc2cc(-c3cnnc(C)c3)c(F)cc2s1 (stereo not shown) [Example 358]
b: COCCS(=O)(=O)C(C(=O)NCC(=O)NC1CC1)c1nc2cc(-c3cccc(C(=O)N(C)C)c3)ccc2s1 (stereo not shown) [Example 398]
c: COCCS(=O)(=O)C(C(=O)NCC(=O)NC1CC1)c1nc2ccc(-c3ccc(C(=O)N4CC[C@H](OC)C4)cc3)cc2s1 (stereo partly shown) [Example 403]
d: CCS(=O)(=O)C(C(=O)NCC(=O)NC1CC1)c1nc2cc(F)c(-c3ccc(NC(=O)OCc4ccccc4)cc3)cc2s1 (stereo not shown) [Example 45]
Kindly provide a descending ordering of the above molecules based on their IC50. I would appreciate it if you listed the labels in the requested order.
a, b, c, d
(a: 60 nM, b: 38 nM, c: 8 nM, d: 3 nM)

====

Biological target: UniProtKB Q9Y5X9
Assay: Endothelial lipase (EL) enzymatic assay with fluorescent substrate A10070 in DMPG vesicles
Type: biochemical
Measured Parameter: IC50 (µM)

Completed entries (count: 5):
State the recorded IC50 for this entry: COCCS(=O)(=O)C(C(=O)NCC(=O)NC1CC1)c1nc2cc(-c3cccc(C(=O)N4CCC(F)(F)C4)c3)ccc2s1 (centres unmarked)
0.008

State the recorded IC50 for this entry: COC(=O)Nc1ccc(-c2cc3sc(C(C(=O)NCC(=O)NC4CC4)S(C)(=O)=O)nc3cc2F)c(C)c1 (centres unmarked)
0.004

State the recorded IC50 for this entry: CS(=O)(=O)C(C(=O)NCC(=O)NC1CC1)c1nc2cc(F)c(-c3ccc(C(N)=O)c(Cl)c3)cc2s1 (centres unmarked)
0.022

State the recorded IC50 for this entry: O=C(CNC(=O)C(c1nc2cc(F)c(-c3ccc(NC(=O)OCC4CC4)cc3)cc2s1)S(=O)(=O)CCC(F)(F)F)NC1CC1 (centres unmarked)
0.001

State the recorded IC50 for this entry: COCCS(=O)(=O)C(C(=O)NCC(=O)NC1CC1)c1nc2ccc(-c3ccncc3)cc2s1 (centres unmarked)
0.023

1: O=C(CNC(=O)C(c1nc2cc(-c3ccc(F)nc3)ccc2s1)S(=O)(=O)Cc1ccc(F)cc1)NC1CC1 (centres unmarked)
2: COCCS(=O)(=O)C(C(=O)NCC(=O)NC1CC1)c1nc2cc(-c3ccc(N4CCCC4)nc3)ccc2s1 (centres unmarked)
IC50 comparison. Which is larger, 1 or 2 ? In your reply, give the label of the chosen option.
2
(2: 0.025 µM, 1: 0.015 µM)

A: CC(C)S(=O)(=O)C(C(=O)NCC(=O)NC1CC1)c1nc2cc(-c3ccc4c(=O)n(C)ccc4c3)c(F)cc2s1 (centres unmarked)
B: CC(C)n1cc(-c2ccc3nc(C(C(=O)NCC(=O)NC4CC4)S(=O)(=O)Cc4cccc(C#N)c4)sc3c2)ccc1=O (centres unmarked)
C: CN(C)S(=O)(=O)C(C(=O)NCC(=O)NC1CC1)c1nc2c(F)cc(-c3cnc(-c4ccccc4)nc3)cc2s1 (centres unmarked)
D: COCCNC(=O)CNC(=O)C(c1nc2cc(-c3ccc(F)nc3)ccc2s1)S(=O)(=O)CCOC (centres unmarked)
Please give the order of these molecules when sorted by IC50, largest value leading. I would appreciate it if you listed the labels in the requested order.
D, B, C, A
(D: 0.102 µM, B: 0.046 µM, C: 0.008 µM, A: 0.005 µM)

A: CC(C)n1cc(-c2cc3sc(C(C(=O)NCC(=O)NC4CC4)S(=O)(=O)C(C)C)nc3cc2F)ccc1=O (centres unmarked)
B: COCCS(=O)(=O)C(C(=O)NCC(=O)NC1CC1)c1nc2ccc(-c3cnc(Cl)n3C)cc2s1 (centres unmarked)
C: COCCS(=O)(=O)C(C(=O)NCC(=O)NC1CC1)c1nc2cc(F)c(-c3ccc(C(=O)N4CCOCC4)cc3)cc2s1 (centres unmarked)
Let's sort these by IC50, smallest first. Go ahead? I would appreciate it if you listed the labels in the requested order.
C, A, B

The measurements presented in this section are drawn from patent US10173991B2.
